Molecular target: HLA-A*02:01 (Homo sapiens, UniProt P04439, D140Y/D185E/D98H/E176V/E277Q/G131W/G231S/I119V/I121R/I166T/I218V/L300P/L318F/N151K/N90K/P208A/P217A/Q86G/Q94H/R138H/R169H/T345S)
Experiment: MHC binding assay (UV-ligand exchange, beta2m ELISA)
Settings: binding to HLA-A*02:01, UV-ligand exchange
Text: Candidate peptides for T cell based therapies according to the present invention were further tested for their MHC binding capacity (affinity). The individual peptide-MHC complexes were produced by UV-ligand exchange, where a UV-sensitive peptide is cleaved upon UV-irradiation, and exchanged with the peptide of interest as analyzed. Only peptide candidates that can effectively bind and stabilize the peptide-receptive MHC molecules prevent dissociation of the MHC complexes. […]
PROPERTY LABEL: Peptide exchange (MHC class I binding score, peptide exchange yield)

Before answering, review these 7 worked examples.
Please report Peptide exchange (MHC class I binding score, peptide exchange yield) for the following substance: 233 (MLEVHIPSV; listed as Homo sapiens) [compound 233] “+++” (≥50 = +++)

Please report Peptide exchange (MHC class I binding score, peptide exchange yield) for the following substance: 9 (FLLDLDPLL; listed as Homo sapiens) [compound 9] “+++” (≥50 = +++)

Please report Peptide exchange (MHC class I binding score, peptide exchange yield) for the following substance: 125 (FVAPPTAAV; listed as Homo sapiens) [compound 125] “+++” (≥50 = +++)

Please report Peptide exchange (MHC class I binding score, peptide exchange yield) for the following substance: 222 (FLIETGTLL; listed as Homo sapiens) [compound 222] “+++” (≥50 = +++)

Please report Peptide exchange (MHC class I binding score, peptide exchange yield) for the following substance: 292 (KLINSQISL; listed as Homo sapiens) [compound 292] “+++” (≥50 = +++)

Please report Peptide exchange (MHC class I binding score, peptide exchange yield) for the following substance: 270 (VVVDSDSLAFV; listed as Homo sapiens) [compound 270] “++++” (≥75% = ++++)

Please report Peptide exchange (MHC class I binding score, peptide exchange yield) for the following substance: 60 (SLLIDVITV; listed as Homo sapiens) [compound 60] “+++” (≥50 = +++)

***
Please report Peptide exchange (MHC class I binding score, peptide exchange yield) for the following substance: 68 (QIAAFLFTV; listed as Homo sapiens) [compound 68] “++++” (≥75% = ++++)

---

Target: HLA-A*02:01 (Homo sapiens, UniProt P04439, D140Y/D185E/D98H/E176V/E277Q/G131W/G231S/I119V/I121R/I166T/I218V/L300P/L318F/N151K/N90K/P208A/P217A/Q86G/Q94H/R138H/R169H/T345S)
Experiment: MHC binding assay (UV-ligand exchange, beta2m ELISA)
Settings: binding to HLA-A*02:01, UV-ligand exchange
PROPERTY LABEL: Peptide exchange (MHC class I binding score, peptide exchange yield)

Please report Peptide exchange (MHC class I binding score, peptide exchange yield) for the following substance: 62 (ALAPYLDLL; listed as Homo sapiens) [compound 62] “++++” (≥75% = ++++)

Please report Peptide exchange (MHC class I binding score, peptide exchange yield) for the following substance: 1 (LLSGQLPTI; listed as Homo sapiens) [compound 1] “+++” (≥50 = +++)

Please report Peptide exchange (MHC class I binding score, peptide exchange yield) for the following substance: 139 (FLASPLVAI; listed as Homo sapiens) [compound 139] “++++” (≥75% = ++++)

Please report Peptide exchange (MHC class I binding score, peptide exchange yield) for the following substance: 165 (KLLEEIEFL; listed as Homo sapiens) [compound 165] “+++” (≥50 = +++)

---

Test system: CD8+ T cells
Assay: In vitro T-cell priming immunogenicity assay (aAPC with pMHC and anti-CD28, multimer staining)
Format: cell-based, human
Details: HLA-A*02 restricted peptides; percentage of positive wells and donors (among evaluable)
PROPERTY LABEL: Wells positive [%]

Under CD8+ T cells, report Wells positive [%] for 253 (YSDDDVPSV; listed as Homo sapiens) [compound 253] “+++” (50% - 69% = +++)

Under CD8+ T cells, report Wells positive [%] for 43 (ALLEGVKNV; listed as Homo sapiens) [compound 43] “++” (20% - 49% = ++)

Under CD8+ T cells, report Wells positive [%] for 51 (SLLGNSPVL; listed as Homo sapiens) [compound 51] “+++” (50% - 69% = +++)

Under CD8+ T cells, report Wells positive [%] for 66 (KLAPIPVEL; listed as Homo sapiens) [compound 66] “++” (20% - 49% = ++)

---

Target: HLA-A*02:01 (Homo sapiens, UniProt P04439, D140Y/D185E/D98H/E176V/E277Q/G131W/G231S/I119V/I121R/I166T/I218V/L300P/L318F/N151K/N90K/P208A/P217A/Q86G/Q94H/R138H/R169H/T345S)
Assay: MHC binding assay (UV-ligand exchange, beta2m ELISA)
Details: binding to HLA-A*02:01, UV-ligand exchange
PROPERTY LABEL: Peptide exchange (MHC class I binding score, peptide exchange yield)

Before answering, review these 5 worked examples.
Please report Peptide exchange (MHC class I binding score, peptide exchange yield) for the following substance: 297 (ILQNGLETL; listed as Homo sapiens) [compound 297] “+++” (≥50 = +++)

Please report Peptide exchange (MHC class I binding score, peptide exchange yield) for the following substance: 119 (ELCDIILRV; listed as Homo sapiens) [compound 119] “+++” (≥50 = +++)

Please report Peptide exchange (MHC class I binding score, peptide exchange yield) for the following substance: 127 (HLMEENMIVYV; listed as Homo sapiens) [compound 127] “+++” (≥50 = +++)

Please report Peptide exchange (MHC class I binding score, peptide exchange yield) for the following substance: 235 (SLDVYELFL; listed as Homo sapiens) [compound 235] “+++” (≥50 = +++)

Please report Peptide exchange (MHC class I binding score, peptide exchange yield) for the following substance: 281 (TLQTVPLTTV; listed as Homo sapiens) [compound 281] “++++” (≥75% = ++++)

***
Please report Peptide exchange (MHC class I binding score, peptide exchange yield) for the following substance: 160 (LLPPPSPAA; listed as Homo sapiens) [compound 160] “+++” (≥50 = +++)

Please report Peptide exchange (MHC class I binding score, peptide exchange yield) for the following substance: 134 (ALGRLGILSV; listed as Homo sapiens) [compound 134] “+++” (≥50 = +++)

Please report Peptide exchange (MHC class I binding score, peptide exchange yield) for the following substance: 289 (SLLAANNLL; listed as Homo sapiens) [compound 289] “++++” (≥75% = ++++)

---

Target: HLA-A*02:01 (Homo sapiens, UniProt P04439, D140Y/D185E/D98H/E176V/E277Q/G131W/G231S/I119V/I121R/I166T/I218V/L300P/L318F/N151K/N90K/P208A/P217A/Q86G/Q94H/R138H/R169H/T345S)
Assay: MHC binding assay (UV-ligand exchange, beta2m ELISA)
Settings: binding to HLA-A*02:01, UV-ligand exchange
PROPERTY LABEL: Peptide exchange (MHC class I binding score, peptide exchange yield)

Please report Peptide exchange (MHC class I binding score, peptide exchange yield) for the following substance: 69 (TLLAFPLLL; listed as Homo sapiens) [compound 69] “++++” (≥75% = ++++)

Please report Peptide exchange (MHC class I binding score, peptide exchange yield) for the following substance: 84 (FLQELQLEHA; listed as Homo sapiens) [compound 84] “+++” (≥50 = +++)

Please report Peptide exchange (MHC class I binding score, peptide exchange yield) for the following substance: 261 (FLPETRIMTSV; listed as Homo sapiens) [compound 261] “++++” (≥75% = ++++)

Please report Peptide exchange (MHC class I binding score, peptide exchange yield) for the following substance: 308 (SLLDQIPEM; listed as Homo sapiens) [compound 308] “+++” (≥50 = +++)

Please report Peptide exchange (MHC class I binding score, peptide exchange yield) for the following substance: 266 (QLTEMLPSI; listed as Homo sapiens) [compound 266] “++++” (≥75% = ++++)

***
Please report Peptide exchange (MHC class I binding score, peptide exchange yield) for the following substance: 180 (GILQLVESV; listed as Homo sapiens) [compound 180] “+++” (≥50 = +++)

Please report Peptide exchange (MHC class I binding score, peptide exchange yield) for the following substance: 276 (NMISYVVHL; listed as Homo sapiens) [compound 276] “++” (≥20% = ++)

Please report Peptide exchange (MHC class I binding score, peptide exchange yield) for the following substance: 181 (LLFDQNDKV; listed as Homo sapiens) [compound 181] “+++” (≥50 = +++)

Please report Peptide exchange (MHC class I binding score, peptide exchange yield) for the following substance: 64 (FLVEVSNDV; listed as Homo sapiens) [compound 64] “++++” (≥75% = ++++)

Please report Peptide exchange (MHC class I binding score, peptide exchange yield) for the following substance: 159 (LLLSDSGFYL; listed as Homo sapiens) [compound 159] “+++” (≥50 = +++)

Data provenance: patent US10702592B2
